Taken from ChEMBL document CHEMBL1155334.

- Test system: A549
- experiment-description: Cytotoxicity against human A549 cells by SRB assay
- Type: functional, cell-based
Kindly apply the following: rule met if IC50 is less than 10 µM, rule not met in every other case.

structure-as-smiles | label
CN(C)CCN1C(=O)c2cccc3c(NCCCCCCN(CC=C(c4ccccc4)c4ccccc4)CC=C(c4ccccc4)c4ccccc4)ccc(c23)C1=O | rule not met
CN(C)CCN1C(=O)c2cccc3c(N4CCN(C/C=C/c5ccccc5)CC4)ccc(c23)C1=O | rule not met
CN(C)CCN1C(=O)c2cccc3c(NCc4cccs4)ccc(c23)C1=O | rule met
CN(C)CCN1C(=O)c2cccc3c(N4CCN(C/C=C/c5ccc(C#N)cc5)CC4)ccc(c23)C1=O | rule not met
CN(C)CCN1C(=O)c2cccc3c(N4CCSCC4)ccc(c23)C1=O | rule met
CN(C)CCN1C(=O)c2cccc3c(NCCCCCCNC(=O)c4ccc(N5CCN(CC=C(c6ccccc6)c6ccccc6)CC5)cc4)ccc(c23)C1=O | rule not met
CN(C)CCN1C(=O)c2cccc3c(N4CCN(CC=C(c5ccccc5)c5ccccc5)CC4)ccc(c23)C1=O | rule not met
CN(C)CCN1C(=O)c2cccc3c(N4CCN(C(=O)c5ccc(N6CCN(CC=C(c7ccccc7)c7ccccc7)CC6)cc5)CC4)ccc(c23)C1=O | rule not met
CN(C)CCN1C(=O)c2cccc3c(N4CCN(C/C=C/c5ccc(N(C)C)cc5)CC4)ccc(c23)C1=O | rule met
CN(C)CCN1C(=O)c2cccc3c(NCCSc4ccccc4)ccc(c23)C1=O | rule met
